Molecular target: T1, human GPC3 on CHO-K1-human GPC3 cells (clone CHOK1-hGPC3.2B5) (human, UniProt P51654 25-554)
T1 construct: whole, on cells; Stably transfected CHO-K1 clone 2B5
Test: FACS on CHOK1-hGPC3.2B5 cells;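 also: flow cytometry binding of chimeric antibodies to the cells, read out as mean fluorescence intensity, with the half-maximal concentration derived by curve fitting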
Readout Name: pEC50
Would you please state pEC50, meaning minus log10 of the concentration in mol/L, as a bare number?

Look at this binder and give its reported pEC50. F1.92.17 human-murine chimeric antibody (antibody, human IgG1, kappa, V domains shown) VH: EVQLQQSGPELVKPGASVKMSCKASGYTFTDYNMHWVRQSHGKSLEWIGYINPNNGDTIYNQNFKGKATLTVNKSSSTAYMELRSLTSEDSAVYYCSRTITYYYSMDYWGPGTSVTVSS VL: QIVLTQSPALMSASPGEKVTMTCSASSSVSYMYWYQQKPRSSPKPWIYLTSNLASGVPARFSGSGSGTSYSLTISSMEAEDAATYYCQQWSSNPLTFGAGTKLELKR
8.69

What about F1.9.19 human-murine chimeric antibody (antibody, human IgG1, kappa, V domains shown) VH: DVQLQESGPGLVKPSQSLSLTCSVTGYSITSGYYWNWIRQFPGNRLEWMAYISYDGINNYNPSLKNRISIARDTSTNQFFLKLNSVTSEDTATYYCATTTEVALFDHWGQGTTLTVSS VL: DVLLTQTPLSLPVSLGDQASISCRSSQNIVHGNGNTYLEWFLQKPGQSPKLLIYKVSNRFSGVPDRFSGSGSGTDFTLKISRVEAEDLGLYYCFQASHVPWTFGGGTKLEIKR ?
8.75
